target: Acyl-protein thioesterase 2 (Homo sapiens); assay: Inhibition of APT2 (unknown origin)
Sequence (O95372 whole entry): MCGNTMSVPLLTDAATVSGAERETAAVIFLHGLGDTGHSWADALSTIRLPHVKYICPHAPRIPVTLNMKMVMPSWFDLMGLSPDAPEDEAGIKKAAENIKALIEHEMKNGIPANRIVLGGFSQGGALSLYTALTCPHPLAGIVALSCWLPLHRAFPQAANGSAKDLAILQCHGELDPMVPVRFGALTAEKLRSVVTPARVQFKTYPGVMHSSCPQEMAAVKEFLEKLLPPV
MEASURED QUANTITY: Ki (µM)
Quick note: give the figure in µM, leave out the unit.

[Q] # lookup: Ki of CCCCCCCCCC[C@@H]1C(=O)O[C@H]1CCc1ccc(OC)c(OC)c1 [PALMOSTATIN B]
[A] 0.034

###

Exercise: for every item that follows, state its recorded IC50.
target: Acyl-protein thioesterase 2 (Homo sapiens); assay: Inhibition of APT2 (unknown origin)
Quick note: give the figure in nM, leave out the unit.

[Q] # lookup: IC50 of CCCCCCCCCC[C@@H]1C(=O)O[C@H]1CCCCS(=O)(=O)CCCN(C)C
[A] 19.6

[Q] # lookup: IC50 of CCCCCCCCCC[C@@H]1C(=O)O[C@H]1CCc1ccc(OC)c(OC)c1
[A] 37.7
